// each record: one item and its log10(Ki) for UniProt P07858
Parameter value (number): base-10 log of Ki in µM.

Solved cases (4 shown):
1) O=C(N[C@@H](Cc1ccccc1)C(=O)N[C@@H](CCc1ccccc1)C(=O)CSCCCc1ccccc1)OCc1cccnc1 (stereo in doubt; 16e) = -0.15
2) O=C(N[C@@H](Cc1ccccc1)C(=O)N[C@@H](Cc1ccccc1)C(=O)CSCCCc1ccccc1)OCc1ccccc1 = -1.34
3) CC(C)(C)SCC(=O)[C@H](Cc1ccccc1)NC(=O)[C@H](Cc1ccccc1)NC(=O)OCc1ccccc1 = -1.35
4) CCOC(=O)CCSCC(=O)[C@H](Cc1ccccc1)NC(=O)[C@H](Cc1ccccc1)NC(=O)OCc1ccccc1 = -1.37

Fill in reported log10(Ki) for this entry: CC(C)C[C@H](NC(=O)OCc1cccnc1)C(=O)N[C@@H](CCc1ccccc1)C(=O)CSCCCc1ccccc1
0.23

Fill in reported log10(Ki) for this entry: CC(C)C[C@H](NC(=O)OCc1ccccc1)C(=O)N[C@@H](Cc1ccccc1)C(=O)CSCCCc1ccccc1
-0.87

Cited source for all entries: ChEMBL document CHEMBL1135707
